Exercise: state measured Ki for each of the compounds provided.
Target: Alpha-1B adrenergic receptor (Homo sapiens, UniProt P35368)
Sequence (P35368 whole entry): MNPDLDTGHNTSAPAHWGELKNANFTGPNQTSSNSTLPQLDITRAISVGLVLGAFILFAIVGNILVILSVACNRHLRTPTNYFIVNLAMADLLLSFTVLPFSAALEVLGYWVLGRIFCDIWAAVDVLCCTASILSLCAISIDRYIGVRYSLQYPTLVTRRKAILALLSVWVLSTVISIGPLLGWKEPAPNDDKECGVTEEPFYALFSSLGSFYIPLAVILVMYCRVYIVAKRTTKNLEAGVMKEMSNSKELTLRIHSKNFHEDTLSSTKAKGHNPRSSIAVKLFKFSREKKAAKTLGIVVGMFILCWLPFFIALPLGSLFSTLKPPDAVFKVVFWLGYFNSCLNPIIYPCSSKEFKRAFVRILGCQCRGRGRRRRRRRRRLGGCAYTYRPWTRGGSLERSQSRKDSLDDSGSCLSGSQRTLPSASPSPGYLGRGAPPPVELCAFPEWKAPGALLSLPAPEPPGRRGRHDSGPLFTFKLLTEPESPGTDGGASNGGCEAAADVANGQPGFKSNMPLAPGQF
Test: In vitro binding affinity against Alpha-1B adrenergic receptor of cloned human receptor.
Quick reminder: number only, in nM, skip the unit.

# Ki of CCOC(=O)C1=C(C)NC(=O)N(C(=O)NCCCN2CCC(C(=O)OC)(c3ccccc3)CC2)C1c1ccc([N+](=O)[O-])cc1 (configuration not stated) = 15

Ki measured on COC(=O)C1=C(C)NC(=O)N(C(=O)NCCCN2CCC(C(=O)OC)(c3ccccc3)CC2)C1c1ccc2nonc2c1 (configuration not stated) = 27

Record COC(=O)C1=C(C)NC(=O)N(C(=O)NCCCN2CCC(C(=O)OC)(c3ccccc3)CC2)C1c1ccc(F)cc1 (configuration not stated) , field Ki: 78

Reported Ki ( COC(=O)C1=C(C)NC(=O)N(C(=O)NCCCN2CCC(C(=O)OC)(c3ccccc3)CC2)C1c1ccc(C)cc1 (configuration not stated) ) = 77

The recorded Ki for entry COC(=O)C1(c2ccccc2)CCN(CCCNC(=O)N2C(=O)NC(C)=C(C(=O)O)C2c2ccc([N+](=O)[O-])cc2)CC1 (configuration not stated) equals 1600

Summary for this compound, COC(=O)C1=C(C)NC(=O)N(C(=O)NCCCN2CCC(C(=O)OC)(c3ccccc3)CC2)C1c1ccc(F)cc1F (configuration not stated) : Ki is 88

Measured Ki, CNC(=O)C1=C(C)NC(=O)N(C(=O)NCCCN2CCC(C(=O)OC)(c3ccccc3)CC2)C1c1ccc([N+](=O)[O-])cc1 (configuration not stated) : 100
